target: full-length human GLP-1R with an N-terminal FLAG tag (human, UniProt P43220 24-463); assay: cell-based or functional assay
Starred links: 1 amine or outer side, 2 acyl side, 3 side chain; linkers in the order of their positions; H or OH if unused. Non-standard residues stand in square brackets, D forms with d. Groups on a side chain read outwards from the residue. No end group written: not given here. *: point of attachment. C18 diacid = O=C(O)CCCCCCCCCCCCCCCCC(=O)*; C17 diacid = O=C(O)CCCCCCCCCCCCCCCC(=O)*; γGlu = O=C(O)[C@H](CCC(=O)[*:2])N[*:1]; NMeY = CN[C@@H](Cc1ccc(O)cc1)C(=O)O; AEEA = NCCOCCOCC(=O)O; Aib = CC(C)(N)C(=O)O
Field: Human GLP1R cAMP EC50, HEK293T. Provide a value for each of the binders that follow.
Give bare numbers, in nM.

binder="YXEGTFISDYSIXXDRXAQXDFVNWLLAQSG (N-methyl Tyr 1; Aib at 2,13,17,20; Lys(G5-C18 diacid) at 14; C-terminal OH) [Compound No. 53]" recorded_number=47.9

# map each binder to its Human GLP1R cAMP EC50, HEK293T
1. [NMeY][Aib]EGTFISDYSIAK([AEEA-AEEA-γGlu-C18 diacid])DRIHQQNFVNWLLAQRPSSGAPPPS-NH2 [Compound No. 3]
2. [NMeY][Aib]EGTFISDYSIALDR[Aib]AQ[Aib]K([AEEA-AEEA-γGlu-γGlu-C18 diacid])FVNWLLAQRPSSGAPPPS-NH2 [Compound No. 35]
3. [NMeY][Aib]EGTFISDYSIALDR[Aib]AQ[Aib]K([AEEA-AEEA-γGlu-γGlu-C17 diacid])FVNWLLAQRGGGGS-NH2 [Compound No. 30]
4. [NMeY][Aib]EGTFISDYSIALDR[Aib]AQ[Aib]K([AEEA-AEEA-γGlu-γGlu-C18 diacid])FVNWLLAQRGGGGS-NH2 [Compound No. 21]
5. Y[Aib]EGTFISDYSI[Aib]LDR[Aib]AQ[Aib]K([AEEA-AEEA-γGlu-γGlu-C18 diacid])FVNWLLAQRG-OH (not fully specified (N-terminus)) [Compound No. 141]
6. H-Y[Aib]EGTFISDYSIALDKIAQRK([AEEA-AEEA-γGlu-γGlu-C17 diacid])FVEWLLAQRPSSGAPPPS-OH [Compound No. 135]
7. [NMeY][Aib]EGTFISDYSIALDR[Aib]HQ[Aib]NFVNWLLAQK([AEEA-AEEA-γGlu-C18 diacid])PSSGAPPPS-NH2 [Compound No. 1]

Resp:
[10.5, 89.1, 105, 34.7, 5.25, 8.32, 10.5]

Req: Give a short answer stating reported Human GLP1R cAMP EC50, HEK293T for [NMeY][Aib]EGTFISDYSI[Aib]LDR[Aib]AQ[Aib]K([AEEA-AEEA-γGlu-C18 diacid])FVNWLLAQSPSSGAPPPS-NH2 [Compound No. 91] .
Resp: 30.9
